These entries and their values trace back to patent US20140348834A1.

Catalogue of koff readings, one per entry.
TESTED ON: T1, human IL-17A/F (human, UniProt Q16552 24-155; Q96PD4 31-163)
T1 construct: Recombinant; biotinylated in the ELISA; also called hIL-17A/F; HuIL-17A/F
T1 sequence (Q16552 24-155, chain 1 of 2): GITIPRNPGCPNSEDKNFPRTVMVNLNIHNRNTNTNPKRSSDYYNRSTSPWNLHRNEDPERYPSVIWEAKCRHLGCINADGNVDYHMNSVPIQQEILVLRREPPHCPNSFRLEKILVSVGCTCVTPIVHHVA
T1 sequence (Q96PD4 31-163, chain 2 of 2): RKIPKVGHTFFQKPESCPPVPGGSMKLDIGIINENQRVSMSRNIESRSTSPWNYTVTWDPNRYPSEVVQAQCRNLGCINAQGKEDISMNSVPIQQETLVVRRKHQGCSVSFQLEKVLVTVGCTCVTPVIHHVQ
PROTOCOL SUMMARY: SPR (Biacore 3000), antibody captured by anti-Fc, antigen in solution;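 further: purified recombinant IL-17 antigens flowed over captured antibodies in HBS-EP buffer, global Langmuir one-to-one fit of association and dissociation phases, KD derived from koff over kon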

BINDER	ASSAY ENDPOINT	RECORDED RESULT
IL17-h5C5.15 (antibody, V domains shown, IgG; constant regions not specified; also called h5C5.15 (VH.1b-Vk.3a)) VH: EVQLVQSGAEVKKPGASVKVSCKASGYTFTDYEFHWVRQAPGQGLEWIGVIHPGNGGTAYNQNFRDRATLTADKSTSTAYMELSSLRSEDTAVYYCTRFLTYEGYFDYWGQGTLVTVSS VL: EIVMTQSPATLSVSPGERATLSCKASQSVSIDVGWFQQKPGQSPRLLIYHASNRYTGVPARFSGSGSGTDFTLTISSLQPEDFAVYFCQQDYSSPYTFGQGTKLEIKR	koff	0.00112 s⁻¹

Consider the record given below.
Would you mind telling me what koff value was observed for IL17-h5C5.14 (antibody, V domains shown, IgG; constant regions not specified; also called h5C5.14 (VH.1-Vk.3a)) VH: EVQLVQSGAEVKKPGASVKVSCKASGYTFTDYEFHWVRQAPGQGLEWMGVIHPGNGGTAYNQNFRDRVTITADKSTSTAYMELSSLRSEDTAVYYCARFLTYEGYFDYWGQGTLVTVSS VL: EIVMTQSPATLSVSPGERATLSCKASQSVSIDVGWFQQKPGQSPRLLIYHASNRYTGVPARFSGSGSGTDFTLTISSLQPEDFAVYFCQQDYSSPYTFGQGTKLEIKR ?
0.00119 s⁻¹
